experiment: Solubility in water
MEASURE: solubility

Ask: // fetch solubility given entry CN(C)CCc1c[nH]c2cccc(OP(=O)(O)O)c12 [COMP360, psilocybin]
Reply: ~15 mg/mL
